molecular target: Adenosylhomocysteinase (Rattus norvegicus, UniProt P10760); assay: Inhibitory activity against recombinant rat liver S-adenosyl-homocysteine hydrolase
Sequence (P10760 whole entry): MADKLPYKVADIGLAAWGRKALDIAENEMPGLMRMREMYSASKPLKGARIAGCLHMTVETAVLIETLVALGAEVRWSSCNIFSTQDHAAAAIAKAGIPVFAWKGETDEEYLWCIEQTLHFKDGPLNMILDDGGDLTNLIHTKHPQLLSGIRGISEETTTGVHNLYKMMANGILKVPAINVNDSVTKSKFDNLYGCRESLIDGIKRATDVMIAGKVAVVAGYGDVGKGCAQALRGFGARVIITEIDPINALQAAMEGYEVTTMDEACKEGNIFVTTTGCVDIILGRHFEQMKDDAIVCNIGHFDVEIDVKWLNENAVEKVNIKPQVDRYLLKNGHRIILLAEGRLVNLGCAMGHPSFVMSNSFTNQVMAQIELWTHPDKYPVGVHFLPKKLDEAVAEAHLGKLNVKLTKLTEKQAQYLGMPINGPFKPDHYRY
PARAMETER_MEASURED: Ki (nM)
Only the number, expressed in nM, is required.

Before answering, review these 3 worked examples.
Nc1ncnc2c1ncn2[C@@H]1O[C@H](C=O)[C@@H](O)[C@H]1O = 43
Nc1ncnc2c1ncn2[C@@H]1O/C(=C/F)[C@H](O)[C@@H]1O = 40
Nc1ncnc2c1ncn2[C@@H]1O/C(=C\F)[C@H](O)[C@@H]1O = 39

# ---- query compound ----
Looking up Nc1ncnc2c1ncn2[C@@H]1O[C@@H](C=O)[C@@H](O)[C@H]1O , I found its Ki recorded as 39

###

This document collects k2 values reported for Adenosylhomocysteinase (Rattus norvegicus) (UniProt P10760).
Only the number, expressed in min⁻¹, is required.

Before answering, review these 3 worked examples.
Nc1ncnc2c1ncn2[C@@H]1O[C@@H](C=O)[C@@H](O)[C@H]1O = 0.65
Nc1ncnc2c1ncn2[C@@H]1O/C(=C/F)[C@H](O)[C@@H]1O = 0.05
Nc1ncnc2c1ncn2[C@@H]1O[C@H](C=O)[C@@H](O)[C@H]1O = 0.22

Result for Nc1ncnc2c1ncn2[C@@H]1O/C(=C\F)[C@H](O)[C@@H]1O , tested on Adenosylhomocysteinase (Rattus norvegicus) (UniProt P10760), k2: 0.082
